Experiment: Quantitative High-Throughput drug screen in 47 multiple myeloma cell lines against the NCATS MIPE library collection: ARD_JJKsccE7 cell viability assay (AID 1918929)
Settings: ARD myeloma cell line viability, CellTiter-Glo, 48 h; series mostly up to 45.8 µM
Results filed as inconclusive are left out. The source made the active and inactive calls. Calls come from the whole dose curve; as a rule, active = well fitted cell-killing curve with a large enough effect; inconclusive = small, poorly fitted or top-dose-only effect, or effect the other way; inactive = no such curve, though single readings can be large or run the other way.
Outcome (select one): True for active, False for inactive

Solved entries (count: 2):
Clc1cccc(-c2nnnn2Cc2cccnc2)c1Cl; False
COc1ccc(C(=O)CC2(O)C(=O)Nc3c(Cl)ccc(Cl)c32)cc1 (stereo not drawn); True

# next molecule below
Q: Which result was noted for this molecule in the test: NCC(=O)Nc1ccc(-n2nc(C(F)(F)F)cc2-c2ccc3c(ccc4ccccc43)c2)cc1
A: True
